- Assay summary: in vitro
- Measurement conditions: human, Caco-2, Caco-2 (cm/sec)
*1 amine or outer side, *2 acyl side, *3 side chain or, on linkers, in order; H or OH if unused. Where a SMILES comes first, the peptide text is derived from it. Bridges are numbered along the chain shown (N, C = ends). [ ]: non-standard residue; d: D form. The star is where a group is joined. ξ: configuration not given here. Phe(3-CONHMe,4-OMe) = CNC(=O)c1cc(C[C@H](N)C(=O)O)ccc1OC; X1 = COc1cc(C[C@H](N[*:1])C(=O)[*:2])ccc1C(=O)NO; NMePhe(3-Cl) = CN[C@@H](Cc1cccc(Cl)c1)C(=O)O; Tyr(3-F) = N[C@@H](Cc1ccc(O)c(F)c1)C(=O)O; NMehPhe = CN[C@@H](CCc1ccccc1)C(=O)O; X9 = O=C([C@@H](CN[*:1])COCCO)[*:2]; NMeF = CN[C@@H](Cc1ccccc1)C(=O)O; NMeGABA = CN(CCCC(=O)[*:2])[*:1]; NMeI = CC[C@H](C)[C@H](NC)C(=O)O; NMeD = CN[C@@H](CC(=O)O)C(=O)O; CH2CONHtBu = CC(C)(C)NC(=O)C*; NMeL = CN[C@@H](CC(C)C)C(=O)O; Butyl(3S-OH) = C[C@H](O)CC*; NMeV = CN[C@H](C(=O)O)C(C)C; NMeA = CN[C@@H](C)C(=O)O; Piperidide = C1CCN(*)CC1; NBuGly = CCCCNCC(=O)O; NPrGly = CCCNCC(=O)O; X2 = Fc1cncc(C*)c1; Bn = c1ccc(C*)cc1; ξS = NC(CO)C(=O)O; Sar = CNCC(=O)O; tBu = CC(C)(C)*
The label depends only on Papp: criterion met if it is at least 0.5 ×10⁻⁶ cm/s, criterion not met if it is smaller.

{"Compound": "CCCN1CC(=O)N(C)[C@@H](CC(C)C)C(=O)N[C@@H](COCC(=O)NC(C)(C)C)C(=O)N(C)[C@@H](CC(C)C)C(=O)N(C)[C@@H](C)C(=O)N[C@H](C(=O)N2CCCCC2)CC(=O)N[C@H](CC(C)C)C(=O)N(C)[C@@H](CC(C)C)C(=O)N[C@@H](Cc2ccccc2)C(=O)N(C)[C@@H](CCc2ccccc2)C(=O)N[C@@H]([C@@H](C)O)C1=O [AP13] ([dL][NMeL]F[NMehPhe]T[NPrGly][NMeL]S(CH2CONHtBu)[NMeL][NMeA]D-Piperidide; lactam N-11)", "Category label": "criterion not met"}
{"Compound": "CCCCN1CC(=O)N(C)[C@@H](CC(C)C)C(=O)N[C@H](C(=O)N2CCCCC2)CC(=O)N(C)[C@@H](C)C(=O)N[C@@H](COCC[C@H](C)O)C(=O)N(C)[C@@H](CC(C)C)C(=O)N(C)[C@@H](Cc2cccc(Cl)c2)C(=O)N[C@@H](CC(C)C)C(=O)N(C)[C@@H](Cc2ccccc2)C(=O)N(C)[C@@H](C(C)C)C(=O)N[C@@H]([C@@H](C)O)C1=O [AP103] ([NMeA]S(Butyl(3S-OH))[NMeL][NMePhe(3-Cl)]L[NMeF][NMeV]T[NBuGly][NMeL]D-Piperidide; lactam N-11)", "Category label": "criterion met"}
{"Compound": "CC(C)C[C@@H]1NC(=O)[C@H](CC(C)C)N(C)C(=O)[C@H](Cc2cccc(Cl)c2)N(C)C(=O)[C@H](COCCO)CNC(=O)[C@H](CC(C)C)N(C)C(=O)CCCN(C)C(=O)C[C@@H](C(=O)N2CCCCC2)NC(=O)[C@H](CC(C)C)N(C)C(=O)[C@H](CC(C)C)N(C)C(=O)[C@H]([C@@H](C)O)NC(=O)[C@H](CC(C)C)N(C)C1=O [AP129] ([NMeGABA][NMeL][X9][NMePhe(3-Cl)][NMeL]L[NMeL]T[NMeL][NMeL]D-Piperidide; lactam N-11)", "Category label": "criterion not met"}
{"Compound": "CC(C)C[C@H]1C(=O)N[C@@H](COC(C)(C)C)C(=O)N(C)[C@@H](Cc2ccccc2)C(=O)N(C)[C@@H](C(C)C)C(=O)N[C@H](C(=O)N2CCCCC2)CC(=O)N[C@H](C(C)C)C(=O)N(C)[C@@H](Cc2ccccc2)C(=O)N[C@@H](COCc2cncc(F)c2)C(=O)N(C)[C@@H](CC(C)C)C(=O)N[C@@H]([C@@H](C)O)C(=O)N(C)CC(=O)N1C [pd180] ([dV][NMeF]S(X2)[NMeL]T[Sar][NMeL]S(tBu)[NMeF][NMeV]D-Piperidide; lactam N-11)", "Category label": "criterion met"}
{"Compound": "CCCCN1CC(=O)N(C)[C@@H](CC(C)C)C(=O)N[C@@H](Cc2ccc(OC)c(C(=O)NC)c2)C(=O)N(C)[C@@H](CC(C)C)C(=O)N(C)[C@@H](CC(C)C)C(=O)N[C@H](C(=O)N2CCCCC2)CC(=O)N[C@H](CC(C)C)C(=O)N(C)[C@@H](Cc2ccccc2)C(=O)N[C@@H](C(C)C)C(=O)N(C)[C@@H](CC(C)C)C(=O)N[C@@H]([C@@H](C)O)C1=O [AP36] ([dL][NMeF]V[NMeL]T[NBuGly][NMeL][Phe(3-CONHMe,4-OMe)][NMeL][NMeL]D-Piperidide; lactam N-11)", "Category label": "criterion not met"}
{"Compound": "CC(C)C[C@@H]1NC(=O)[C@H](CC(C)C)N(C)C(=O)[C@H](C)N(C)C(=O)[C@@H](C(C)C)NC(=O)C[C@@H](C(=O)N2CCCCC2)NC(=O)[C@H]([C@@H](C)O)NC(=O)[C@H](C)N(C)C(=O)[C@H](C)N(C)C(=O)[C@H](CC(C)C)N(C)C(=O)[C@H](Cc2ccc(O)c(F)c2)NC(=O)[C@H](Cc2ccccc2)N(C)C1=O [pd113] ([dV][NMeA][NMeL]L[NMeF][Tyr(3-F)][NMeL][NMeA][NMeA]TD-Piperidide; lactam N-11)", "Category label": "criterion not met"}
{"Compound": "CC[C@H](C)[C@@H]1NC(=O)[C@H](Cc2ccccc2)N(C)C(=O)CN(C)C(=O)C[C@@H](C(=O)N2CCCCC2)NC(=O)[C@H]([C@@H](C)CC)N(C)C(=O)C(COCc2ccccc2)NC(=O)[C@H](CC(C)C)N(C)C(=O)[C@H](Cc2ccccc2)N(C)C(=O)CN(C)C(=O)[C@H]([C@@H](C)O)NC(=O)[C@H](CC(C)C)N(C)C1=O (stereo partly drawn) [pd178] ([Sar][NMeF]I[NMeL]T[Sar][NMeF][NMeL][ξS](Bn)[NMeI]D-Piperidide; lactam N-11)", "Category label": "criterion met"}
{"Compound": "CCCCN1CC(=O)N(C)[C@@H](CC(C)C)C(=O)N[C@@H](COC(C)(C)C)C(=O)N(C)[C@@H](Cc2ccccc2)C(=O)N(C)[C@@H](CC(C)C)C(=O)N[C@H](C(=O)N2CCCCC2)CC(=O)N[C@H](C(C)C)C(=O)N(C)[C@@H](C(C)C)C(=O)N[C@@H](Cc2ccc(C(=O)NO)c(OC)c2)C(=O)N(C)[C@@H](CC(C)C)C(=O)N[C@@H]([C@@H](C)O)C1=O [AP256] ([dV][NMeV][X1][NMeL]T[NBuGly][NMeL]S(tBu)[NMeF][NMeL]D-Piperidide; lactam N-11)", "Category label": "criterion not met"}
{"Compound": "CC(C)C[C@@H]1NC(=O)[C@H](Cc2ccccc2)N(C)C(=O)[C@H]2CCCN2C(=O)C[C@@H](C(=O)N2CCCCC2)N(C)C(=O)[C@H](Cc2ccccc2)N(C)C(=O)[C@H](Cc2ccccc2)N(C)C(=O)[C@H](COC(C)(C)C)NC(=O)[C@H](C(C)C)N(C)C(=O)CN(C)C(=O)[C@H]([C@@H](C)O)NC(=O)[C@H](CC(C)C)N(C)C1=O [pd200] ([dP][NMeF]L[NMeL]T[Sar][NMeV]S(tBu)[NMeF][NMeF][NMeD]-Piperidide; lactam N-11)", "Category label": "criterion met"}
